assay: intravenous pharmacokinetics in rats; assay type: in vivo; conditions: male, Wistar Hannover, rat, plasma, 0.1 mg/kg
METRIC_NAME: clearance (mL/min/kg)
One number for each entry, in mL/min/kg.

Query block: # query: clearance of entry CC[C@H](C)[C@@H]1NC(=O)[C@H](Cc2ccc(O)cc2)NC(=O)[C@@H](N)CSSC[C@@H](C(=O)N2CCC[C@H]2C(=O)N[C@@H](CC(C)C)C(=O)NCC(N)=O)NC(=O)[C@H](CC(N)=O)NC(=O)[C@H](CCC(N)=O)NC1=O [OT, Oxytocin]
Result block: 17.1

---

test: intravenous pharmacokinetics in rats; type: in vivo; settings: male, Wistar Hannover, rat, plasma, 0.1 mg/kg
METRIC_NAME: half-life (min)
Answers are plain numbers, in min.

Query block: # query: half-life of entry CC[C@H](C)[C@@H]1NC(=O)[C@H](Cc2ccc(O)cc2)NC(=O)[C@@H](N)CSSC[C@@H](C(=O)N2CCC[C@H]2C(=O)N[C@@H](CC(C)C)C(=O)NCC(N)=O)NC(=O)[C@H](CC(N)=O)NC(=O)[C@H](CCC(N)=O)NC1=O
Result block: 7.2

---

assay: subcutaneous nondepot pharmacokinetics in mice; assay type: in vivo, mouse; conditions: male, C57BL/6J, mouse, plasma, sc, 1 mg/kg
METRIC_NAME: Cmax (µM)
Numbers only, in µM.

Query block: # query: Cmax of entry CC[C@H](C)[C@@H]1NC(=O)[C@H](Cc2ccc(O)cc2)NC(=O)[C@@H](N)CSSC[C@@H](C(=O)N2CCC[C@H]2C(=O)N[C@@H](CC(C)C)C(=O)NCC(N)=O)NC(=O)[C@H](CC(N)=O)NC(=O)[C@H](CCC(N)=O)NC1=O
Result block: 0.216

---

assay: subcutaneous depot pharmacokinetics in mice; type: in vivo, mouse; conditions: male, C57BL/6J, mouse, plasma, sc, 20 mg/kg
METRIC_NAME: half-life (h)
Give bare numbers, in h.

Query block: # query: half-life of entry CC[C@H](C)[C@@H]1NC(=O)[C@H](Cc2ccc(O)cc2)NC(=O)[C@@H](N)CSSC[C@@H](C(=O)N2CCC[C@H]2C(=O)N[C@@H](CC(C)C)C(=O)NCC(N)=O)NC(=O)[C@H](CC(N)=O)NC(=O)[C@H](CCC(N)=O)NC1=O
Result block: 7.3

---

assay: subcutaneous depot pharmacokinetics in mice; format: in vivo, mouse; conditions: male, C57BL/6J, mouse, plasma, sc, 20 mg/kg
METRIC_NAME: Cmax (nM)
One number for each entry, in nM.

Query block: # query: Cmax of entry CC[C@H](C)[C@@H]1NC(=O)[C@H](Cc2ccc(O)cc2)NC(=O)[C@@H](N)CSSC[C@@H](C(=O)N2CCC[C@H]2C(=O)N[C@@H](CC(C)C)C(=O)NCC(N)=O)NC(=O)[C@H](CC(N)=O)NC(=O)[C@H](CCC(N)=O)NC1=O [OT, Oxytocin]
Result block: 65.4
